Biological target: HDAC9 (Homo sapiens, UniProt Q9UKV0)
readout.label: pIC50
Remember, pIC50 is on a log scale: it is -log10 of the molar concentration.

Input: // lookup pIC50 | system=HDAC9 (Homo sapiens, UniProt Q9UKV0) | key= Cc1nc2ccc(F)cc2n1Cc1ccc(C(=O)NO)cc1 [30a]
Output: 6.33

====

Let's look at some compounds and their measured Papp A→B.
Assay: Caco-2 permeability
Format: in vitro ADME
Conditions: human, Caco-2, pH 7.4

- compound: "CN1CCc2c(c3ccccc3n2Cc2ccc(C(=O)NO)cc2)C1 [tubastatin A, reference compound]"
  readout.label: "Papp A→B"
  readout.value: "20 nm/s"

Below: the item to evaluate.
Input: Given Cc1nc2ccccc2n1Cc1ccc(C(=O)NO)cc1F [23d] , state its recorded Papp A→B.
Output: 38.9 nm/s

====

Assay: Liver microsomes stability, mouse
Type: in vitro ADME
readout.label: half-life (h)
Field: numeric (h). Do not append units.

- compound: "Cc1nc2ccccc2n1Cc1ccc(C(=O)NO)cc1F [23d]"
  readout.label: "half-life"
  readout.value: 4.75

Next compound, half-life to be filled in.
Input: If you can, please state the reported half-life value of CN1CCc2c(c3ccccc3n2Cc2ccc(C(=O)NO)cc2)C1 [tubastatin A, reference compound] .
Output: 5.05

====

pIC50: −log10 of the molar value.
Hi! I'm sharing some pIC50 results obtained with CYP 2C9 (Homo sapiens).
Sequence (P11712 whole entry): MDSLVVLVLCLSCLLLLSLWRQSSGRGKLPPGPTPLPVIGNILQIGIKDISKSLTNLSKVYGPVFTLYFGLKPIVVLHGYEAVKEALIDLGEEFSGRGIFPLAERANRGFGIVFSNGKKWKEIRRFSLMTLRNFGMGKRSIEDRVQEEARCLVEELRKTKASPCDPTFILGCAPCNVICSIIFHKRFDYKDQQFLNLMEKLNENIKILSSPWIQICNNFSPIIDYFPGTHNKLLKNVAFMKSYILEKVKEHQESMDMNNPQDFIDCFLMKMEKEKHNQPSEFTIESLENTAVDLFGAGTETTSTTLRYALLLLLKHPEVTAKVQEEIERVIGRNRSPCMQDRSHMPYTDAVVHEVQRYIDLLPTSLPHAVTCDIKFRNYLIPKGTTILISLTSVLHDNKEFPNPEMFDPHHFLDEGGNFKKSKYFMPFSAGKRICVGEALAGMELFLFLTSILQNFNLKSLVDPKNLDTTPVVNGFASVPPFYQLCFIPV

- compound: "Cc1nc2ccccc2n1Cc1ccc(C(=O)NO)cc1F [23d]"
  readout.value: "< 4.30"

Next compound, pIC50 to be filled in.
Input: Query the reported pIC50 for CYP 2C9 (Homo sapiens); item: CN1CCc2c(c3ccccc3n2Cc2ccc(C(=O)NO)cc2)C1 [tubastatin A, reference compound]
Output: < 4.30

====

Recorded Selectivity HDAC1/HDAC6, one value per entry.
Target: HDAC6 (Homo sapiens, UniProt Q9UBN7)
Assay: HDAC6 enzymatic inhibition assay
Assay type: biochemical
Details: ratio of HDAC1 and HDAC6 IC50 of Table 1 (fold)
# answer = number (no unit)

Field: example entries. Status: answers known.
- compound: "Cc1nc2ccccc2n1Cc1ccc(C(=O)NO)cc1 [12a]"
  Selectivity HDAC1/HDAC6: 955
- compound: "O=C(NO)c1ccc(Cn2c(C(F)(F)F)nc3ccccc32)c(F)c1 [23e]"
  Selectivity HDAC1/HDAC6: 1500
- compound: "CN(C)CCc1nc2ccccc2n1Cc1ccc(C(=O)NO)cc1 [12e]"
  Selectivity HDAC1/HDAC6: 416
- compound: "Cc1nc2ccc(F)cc2n1Cc1ccc(C(=O)NO)cc1 [30a]"
  Selectivity HDAC1/HDAC6: 562

Input: Entry CC(=O)NCCCc1nc2ccccc2n1Cc1ccc(C(=O)NO)cc1 [12d] has what Selectivity HDAC1/HDAC6?
Output: 312

Input: Entry CC(C)c1nc2ccccc2n1Cc1ccc(C(=O)NO)cc1 [12b] : reported Selectivity HDAC1/HDAC6 = ?
Output: 589

====

Target: HDAC1 (Homo sapiens)
Sequence (Q13547 whole entry): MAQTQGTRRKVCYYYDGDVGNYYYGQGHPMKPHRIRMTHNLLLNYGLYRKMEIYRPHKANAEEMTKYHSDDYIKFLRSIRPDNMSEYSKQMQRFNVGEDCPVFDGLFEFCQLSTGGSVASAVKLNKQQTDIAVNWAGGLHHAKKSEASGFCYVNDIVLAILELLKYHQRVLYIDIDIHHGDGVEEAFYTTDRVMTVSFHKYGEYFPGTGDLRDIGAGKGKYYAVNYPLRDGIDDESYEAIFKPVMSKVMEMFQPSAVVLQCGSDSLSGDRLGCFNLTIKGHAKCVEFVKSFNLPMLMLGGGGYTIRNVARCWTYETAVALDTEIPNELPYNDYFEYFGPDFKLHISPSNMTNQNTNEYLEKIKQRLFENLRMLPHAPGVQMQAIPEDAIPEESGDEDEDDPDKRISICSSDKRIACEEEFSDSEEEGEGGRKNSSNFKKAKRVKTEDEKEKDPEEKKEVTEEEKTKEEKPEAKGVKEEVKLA
readout.label: IC50 (µM)
Numbers only here, please. The scale is µM.

Input: GET /values?readout=IC50&system=HDAC1 (Homo sapiens)&item= Cc1nc2ccc(F)cc2n1Cc1ccc(C(=O)NO)cc1 [30a]
Output: 4.36

====

IC50 reference
Target: UniProt Q9UQL6
Sequence (Q9UQL6 whole entry): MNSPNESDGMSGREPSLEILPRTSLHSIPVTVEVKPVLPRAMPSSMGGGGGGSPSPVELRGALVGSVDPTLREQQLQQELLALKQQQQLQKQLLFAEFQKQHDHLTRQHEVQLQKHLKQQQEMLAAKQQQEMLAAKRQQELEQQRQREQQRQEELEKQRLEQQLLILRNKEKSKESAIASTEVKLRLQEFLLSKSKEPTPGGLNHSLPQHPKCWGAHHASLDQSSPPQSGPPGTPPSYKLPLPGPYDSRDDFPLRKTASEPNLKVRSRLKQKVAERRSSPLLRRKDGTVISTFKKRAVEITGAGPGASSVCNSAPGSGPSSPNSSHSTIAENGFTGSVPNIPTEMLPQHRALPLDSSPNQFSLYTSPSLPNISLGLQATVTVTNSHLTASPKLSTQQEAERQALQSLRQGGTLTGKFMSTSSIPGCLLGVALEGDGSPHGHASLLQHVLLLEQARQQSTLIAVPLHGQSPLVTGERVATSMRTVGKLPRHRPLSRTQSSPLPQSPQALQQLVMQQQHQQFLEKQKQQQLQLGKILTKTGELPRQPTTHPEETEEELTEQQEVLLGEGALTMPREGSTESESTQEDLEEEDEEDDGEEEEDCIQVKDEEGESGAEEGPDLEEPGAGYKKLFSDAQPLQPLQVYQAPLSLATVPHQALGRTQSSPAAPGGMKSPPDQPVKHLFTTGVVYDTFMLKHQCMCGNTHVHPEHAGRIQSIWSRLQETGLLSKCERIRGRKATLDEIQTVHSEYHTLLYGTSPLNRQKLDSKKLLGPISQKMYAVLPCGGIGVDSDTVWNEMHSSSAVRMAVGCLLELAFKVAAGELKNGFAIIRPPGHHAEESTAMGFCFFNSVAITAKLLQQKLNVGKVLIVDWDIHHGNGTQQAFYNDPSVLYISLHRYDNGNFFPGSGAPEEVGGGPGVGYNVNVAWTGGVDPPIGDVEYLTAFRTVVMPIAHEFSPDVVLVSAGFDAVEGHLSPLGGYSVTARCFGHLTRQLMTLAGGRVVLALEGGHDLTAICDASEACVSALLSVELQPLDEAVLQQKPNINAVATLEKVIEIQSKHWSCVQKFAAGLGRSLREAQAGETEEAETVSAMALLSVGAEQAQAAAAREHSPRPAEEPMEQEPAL
Quote the value and follow it with the unit of measurement.

- compound: "Cc1nc2ccccc2n1Cc1ccc(C(=O)NO)cc1F [23d]"
  IC50: "182 nM"

Kindly review the next compound as well.
Input: Which measured IC50 belongs to Cc1nc2ccc(F)cc2n1Cc1ccc(C(=O)NO)cc1 [30a] , tested on UniProt Q9UQL6?
Output: 397 nM

====

Biological target: UniProtKB Q969S8
Sequence (Q969S8 whole entry): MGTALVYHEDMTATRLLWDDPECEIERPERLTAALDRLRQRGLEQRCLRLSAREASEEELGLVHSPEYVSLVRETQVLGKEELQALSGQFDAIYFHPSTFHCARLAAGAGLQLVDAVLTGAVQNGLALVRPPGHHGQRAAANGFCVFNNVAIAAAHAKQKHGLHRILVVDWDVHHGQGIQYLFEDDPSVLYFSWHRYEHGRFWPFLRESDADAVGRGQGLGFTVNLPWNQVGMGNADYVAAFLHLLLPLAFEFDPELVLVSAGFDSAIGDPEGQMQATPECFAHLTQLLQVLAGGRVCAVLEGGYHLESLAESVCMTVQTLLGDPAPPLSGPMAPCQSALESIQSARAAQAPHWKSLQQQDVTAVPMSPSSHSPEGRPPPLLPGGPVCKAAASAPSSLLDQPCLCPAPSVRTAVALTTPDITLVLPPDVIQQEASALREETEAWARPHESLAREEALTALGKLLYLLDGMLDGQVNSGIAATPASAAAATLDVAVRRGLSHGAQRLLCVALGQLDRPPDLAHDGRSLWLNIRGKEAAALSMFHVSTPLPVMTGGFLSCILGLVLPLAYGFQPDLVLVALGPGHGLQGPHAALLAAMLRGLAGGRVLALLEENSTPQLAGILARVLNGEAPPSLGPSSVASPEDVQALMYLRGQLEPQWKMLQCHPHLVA
readout.label: pIC50
Note: pIC50 values are expressed as the negative base-10 logarithm of concentration in M.

Input: Given the entry Cc1nc2ccc(F)cc2n1Cc1ccc(C(=O)NO)cc1 [30a] , what pIC50 was observed with UniProtKB Q969S8?
Output: 4.93

====

Reported pIC50, UniProtKB P56524.
Sequence (P56524 whole entry): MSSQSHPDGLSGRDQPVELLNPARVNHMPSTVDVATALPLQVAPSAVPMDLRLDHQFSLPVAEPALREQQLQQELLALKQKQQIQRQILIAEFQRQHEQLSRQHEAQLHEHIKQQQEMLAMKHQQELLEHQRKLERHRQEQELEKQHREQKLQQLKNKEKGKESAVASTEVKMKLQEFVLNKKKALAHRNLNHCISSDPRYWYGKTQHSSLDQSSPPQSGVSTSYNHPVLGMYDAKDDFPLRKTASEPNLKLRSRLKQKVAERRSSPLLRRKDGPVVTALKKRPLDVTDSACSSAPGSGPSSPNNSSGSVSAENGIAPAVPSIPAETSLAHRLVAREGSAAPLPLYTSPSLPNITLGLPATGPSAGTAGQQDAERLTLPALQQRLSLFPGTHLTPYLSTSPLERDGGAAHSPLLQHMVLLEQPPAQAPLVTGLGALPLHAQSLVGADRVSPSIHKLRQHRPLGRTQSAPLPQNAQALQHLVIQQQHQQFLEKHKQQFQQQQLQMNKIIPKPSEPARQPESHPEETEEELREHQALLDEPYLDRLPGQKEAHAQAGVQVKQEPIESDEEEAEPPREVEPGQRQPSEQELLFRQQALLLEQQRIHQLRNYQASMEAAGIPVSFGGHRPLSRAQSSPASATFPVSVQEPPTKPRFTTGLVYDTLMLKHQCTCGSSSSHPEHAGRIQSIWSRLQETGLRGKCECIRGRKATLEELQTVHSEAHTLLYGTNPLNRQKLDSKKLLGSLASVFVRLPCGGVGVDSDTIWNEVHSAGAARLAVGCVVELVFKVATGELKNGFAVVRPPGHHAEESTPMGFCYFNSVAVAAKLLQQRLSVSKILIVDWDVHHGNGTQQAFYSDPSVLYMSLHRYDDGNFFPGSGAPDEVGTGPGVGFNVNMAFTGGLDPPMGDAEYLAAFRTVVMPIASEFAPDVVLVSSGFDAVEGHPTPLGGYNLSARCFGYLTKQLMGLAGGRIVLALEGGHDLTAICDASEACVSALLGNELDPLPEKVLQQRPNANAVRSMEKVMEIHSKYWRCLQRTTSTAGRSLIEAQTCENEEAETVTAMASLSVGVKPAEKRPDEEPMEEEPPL
pIC50 (log units): -log10 of the concentration in mol/L.

- molecule: "Cc1nc2ccc(F)cc2n1Cc1ccc(C(=O)NO)cc1 [30a]"
  readout.label: "pIC50"
  readout.value: 5.84

Input: Entry Cc1nc2ccccc2n1Cc1ccc(C(=O)NO)cc1F [23d] : reported pIC50 = ?
Output: 6.33

====

Biological target: HDAC7 (Homo sapiens, UniProt Q8WUI4)
readout.label: pIC50
Note on pIC50: it is the negative log10 of concentration, concentration in mol/L.

Input: Give recorded pIC50 with HDAC7 (Homo sapiens, UniProt Q8WUI4) for the following compound: Cc1nc2ccc(F)cc2n1Cc1ccc(C(=O)NO)cc1 [30a]
Output: 6.68

====

Assay: Intravenous and oral plasma pharmacokinetics in male CD1 mice
Assay type: in vivo
Details: CD1, mouse, iv, 3 mg/kg
readout.label: half-life

Input: For Cc1nc2ccccc2n1Cc1ccc(C(=O)NO)cc1F [23d] , what is its reported half-life?
Output: 51.1 min

====

Assay: Intravenous and oral plasma pharmacokinetics in male CD1 mice
Assay type: in vivo
Details: CD1, mouse, iv, 3 mg/kg
readout.label: Vd

Input: Fill in the blank: the reported Vd of Cc1nc2ccccc2n1Cc1ccc(C(=O)NO)cc1F [23d] is ____.
Output: 0.382 L/kg

====

The entries below come with measured half-life values attached.
Experiment: Liver microsomes stability, human
Assay type: in vitro ADME
The figure you give is taken to be in min; do not add the unit.

- molecule: "Cc1nc2ccccc2n1Cc1ccc(C(=O)NO)cc1F [23d]"
  units.text: "min"
  readout.value: 1940

Input: Which half-life is reported for this molecule? CN1CCc2c(c3ccccc3n2Cc2ccc(C(=O)NO)cc2)C1 [tubastatin A, reference compound]
Output: 1520

====

Target protein (sequence): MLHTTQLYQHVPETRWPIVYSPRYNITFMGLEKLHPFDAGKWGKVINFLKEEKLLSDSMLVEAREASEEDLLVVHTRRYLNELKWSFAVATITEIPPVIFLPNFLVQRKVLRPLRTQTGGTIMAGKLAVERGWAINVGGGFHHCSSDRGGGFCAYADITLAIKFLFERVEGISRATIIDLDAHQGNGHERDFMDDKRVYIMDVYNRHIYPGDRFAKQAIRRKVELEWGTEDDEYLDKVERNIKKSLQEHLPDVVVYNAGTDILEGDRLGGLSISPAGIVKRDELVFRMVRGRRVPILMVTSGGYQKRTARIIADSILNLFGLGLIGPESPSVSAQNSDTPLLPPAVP
readout.label: IC50 (µM)
Hi! Could you send only the number? It should be in µM, unit omitted.

Input: Look up IC50: Cc1nc2ccc(F)cc2n1Cc1ccc(C(=O)NO)cc1 [30a]
Output: 7.49

====

Biological target: CYP 3A4-T (Homo sapiens, UniProt P08684)
Sequence (P08684 whole entry): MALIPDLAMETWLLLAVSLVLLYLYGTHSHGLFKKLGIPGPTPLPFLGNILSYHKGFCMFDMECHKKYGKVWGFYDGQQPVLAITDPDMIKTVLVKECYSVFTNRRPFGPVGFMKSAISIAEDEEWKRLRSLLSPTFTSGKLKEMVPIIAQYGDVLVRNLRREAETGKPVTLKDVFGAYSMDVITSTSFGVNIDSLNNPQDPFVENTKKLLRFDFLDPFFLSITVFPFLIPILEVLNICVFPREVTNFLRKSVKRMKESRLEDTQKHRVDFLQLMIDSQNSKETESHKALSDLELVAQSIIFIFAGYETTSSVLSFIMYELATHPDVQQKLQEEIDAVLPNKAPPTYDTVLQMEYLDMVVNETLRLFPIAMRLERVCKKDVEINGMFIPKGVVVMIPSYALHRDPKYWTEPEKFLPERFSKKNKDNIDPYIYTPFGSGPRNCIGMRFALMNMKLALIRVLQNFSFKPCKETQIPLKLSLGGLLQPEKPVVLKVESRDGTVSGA
Assay: CYP inhibition 3A4-T
Type: in vitro ADME
readout.label: IC50 (µM)
API: value field is a number in µM; no unit string.

Input: IC50 for Cc1nc2ccccc2n1Cc1ccc(C(=O)NO)cc1F [23d] ?
Output: 36

====

Target: UniProt P10635
Sequence (P10635 whole entry): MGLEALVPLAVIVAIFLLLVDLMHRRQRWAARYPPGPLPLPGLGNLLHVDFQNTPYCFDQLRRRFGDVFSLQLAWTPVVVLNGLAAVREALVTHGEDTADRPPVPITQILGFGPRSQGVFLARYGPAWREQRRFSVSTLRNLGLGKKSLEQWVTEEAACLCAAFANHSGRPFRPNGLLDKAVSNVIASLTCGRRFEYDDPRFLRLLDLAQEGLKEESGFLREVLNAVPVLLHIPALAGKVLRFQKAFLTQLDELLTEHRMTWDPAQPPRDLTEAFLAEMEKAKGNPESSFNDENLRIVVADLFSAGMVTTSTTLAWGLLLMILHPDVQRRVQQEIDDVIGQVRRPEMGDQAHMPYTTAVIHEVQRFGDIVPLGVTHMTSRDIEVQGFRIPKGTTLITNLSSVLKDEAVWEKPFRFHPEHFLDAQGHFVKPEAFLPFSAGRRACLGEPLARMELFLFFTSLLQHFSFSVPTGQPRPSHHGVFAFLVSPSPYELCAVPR
readout.label: IC50 (µM)
Give just the number in µM; leave the unit off.

Input: I have this compound here, CN1CCc2c(c3ccccc3n2Cc2ccc(C(=O)NO)cc2)C1 [tubastatin A, reference compound] , and I need its recorded IC50.
Output: 16

====

Biological target: HDAC6 (Homo sapiens, UniProt Q9UBN7)
Test: HDAC6 enzymatic inhibition assay
Format: biochemical
Conditions: HDAC6 IC50, singlet 10-dose IC50 mode, 3-fold serial dilution starting at 1 μM
readout.label: IC50 (nM)
Answer with a number only, understood to be in nM.

Input: Form field: IC50 recorded for Cc1nc2ccc(F)cc2n1Cc1ccc(C(=O)NO)cc1 [30a] with HDAC6 (Homo sapiens, UniProt Q9UBN7) (enter value)
Output: 3.12

====

In this section, each of the compounds is paired with its reported IC50.
Biological target: HDAC6 (Homo sapiens, UniProt Q9UBN7)
Sequence (Q9UBN7 1-1215): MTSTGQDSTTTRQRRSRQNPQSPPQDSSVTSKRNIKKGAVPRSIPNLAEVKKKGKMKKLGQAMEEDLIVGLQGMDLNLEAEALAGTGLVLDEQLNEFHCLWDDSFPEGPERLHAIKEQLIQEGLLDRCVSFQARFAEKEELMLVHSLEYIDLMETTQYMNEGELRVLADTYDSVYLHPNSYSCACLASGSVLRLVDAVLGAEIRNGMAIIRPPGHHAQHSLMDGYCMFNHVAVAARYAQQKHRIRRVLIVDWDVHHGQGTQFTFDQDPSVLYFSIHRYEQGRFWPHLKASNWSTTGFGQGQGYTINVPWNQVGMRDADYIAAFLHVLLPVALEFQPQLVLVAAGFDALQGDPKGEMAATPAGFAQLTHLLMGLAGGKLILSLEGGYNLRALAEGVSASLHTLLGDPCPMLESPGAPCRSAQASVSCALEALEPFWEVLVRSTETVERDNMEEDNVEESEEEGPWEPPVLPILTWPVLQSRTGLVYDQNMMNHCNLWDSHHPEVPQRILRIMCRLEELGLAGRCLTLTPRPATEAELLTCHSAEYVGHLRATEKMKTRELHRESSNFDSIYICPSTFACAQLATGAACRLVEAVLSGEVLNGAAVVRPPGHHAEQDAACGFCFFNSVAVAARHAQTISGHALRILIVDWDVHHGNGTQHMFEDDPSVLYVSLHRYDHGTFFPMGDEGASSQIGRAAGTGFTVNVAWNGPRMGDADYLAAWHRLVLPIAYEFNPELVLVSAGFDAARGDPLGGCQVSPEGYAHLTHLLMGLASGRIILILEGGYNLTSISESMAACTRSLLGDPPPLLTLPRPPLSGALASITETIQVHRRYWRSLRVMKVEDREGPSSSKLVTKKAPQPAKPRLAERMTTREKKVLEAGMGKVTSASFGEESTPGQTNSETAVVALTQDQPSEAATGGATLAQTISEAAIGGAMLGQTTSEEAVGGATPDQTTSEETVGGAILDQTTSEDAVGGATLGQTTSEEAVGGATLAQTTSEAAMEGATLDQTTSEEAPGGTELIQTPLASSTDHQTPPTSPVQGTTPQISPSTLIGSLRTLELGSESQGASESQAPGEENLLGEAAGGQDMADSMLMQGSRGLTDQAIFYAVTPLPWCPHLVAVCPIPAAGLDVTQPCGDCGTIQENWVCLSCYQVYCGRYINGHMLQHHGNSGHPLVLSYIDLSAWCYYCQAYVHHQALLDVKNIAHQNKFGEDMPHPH
Experiment: HDAC6 enzymatic inhibition assay
Type: biochemical
Conditions: IC50 (nM) HDAC6, mean of two experiments ± standard deviation; 10-point enzymatic assay starting from 30 μM, 3-fold serial dilution
Form entry: value (nM) — number only.

- compound: "O=C(NO)c1ccc(CN2CCSc3ccccc32)cc1 [17c]"
  units.text: "nM"
  IC50: 6
- compound: "Cc1nc2ccccc2n1Cc1ccc(C(=O)NO)cn1 [23c]"
  units.text: "nM"
  IC50: 77

Read the next record carefully.
Input: Which IC50 is reported for this compound? O=C(NO)c1ccc(Cn2c(=O)cnc3ccccc32)cc1 [17f]
Output: 1

Entry source: paper PMC4775085
